Target: Vitamin D3 receptor (Homo sapiens) (UniProt P11473)
Sequence (P11473 whole entry): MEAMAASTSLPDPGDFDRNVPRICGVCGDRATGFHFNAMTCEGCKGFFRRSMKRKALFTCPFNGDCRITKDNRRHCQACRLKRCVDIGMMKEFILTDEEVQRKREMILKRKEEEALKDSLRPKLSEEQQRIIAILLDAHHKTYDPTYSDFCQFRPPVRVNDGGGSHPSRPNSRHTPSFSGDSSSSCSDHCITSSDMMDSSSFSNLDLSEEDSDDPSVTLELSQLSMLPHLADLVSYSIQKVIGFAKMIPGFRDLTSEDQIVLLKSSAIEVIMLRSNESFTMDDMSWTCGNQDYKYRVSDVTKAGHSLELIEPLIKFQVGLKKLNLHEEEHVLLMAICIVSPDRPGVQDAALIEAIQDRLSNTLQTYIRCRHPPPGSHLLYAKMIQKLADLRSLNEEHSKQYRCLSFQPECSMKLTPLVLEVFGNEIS
Assay: Transactivation of VDR in human […] cell assessed as cell differentiation at 10^-7 to 10^-5 M measured after 4 days by NBT dye-based assay
The source made the active and inactive calls. No cut-off for these calls is given here.
Can you answer with just one of these options? Y (active), N (inactive)

>  <MOL>
C[C@H](CCC(=O)O)[C@H]1CC[C@H]2[C@@H]3CC[C@@H]4C[C@H](OC(=O)C(F)(F)F)CC[C@]4(C)[C@H]3CC[C@]12C

>  <MEASUREMENT_TARGET>
Vitamin D3 receptor (Homo sapiens) (UniProt P11473)

>  <GROUP>
N

$$$$

In: State the result this test recorded for C[C@H](CCC(=O)O)[C@H]1CC[C@H]2[C@@H]3CC[C@@H]4C[C@H](NS(C)(=O)=O)CC[C@]4(C)[C@H]3CC[C@]12C .
Out: Y

In: State the result this test recorded for C[C@H](CCC(=O)O)[C@H]1CC[C@H]2[C@@H]3CC[C@@H]4C[C@H](OC(=O)c5ccccc5)CC[C@]4(C)[C@H]3CC[C@]12C .
Out: N

In: State the result this test recorded for COC(=O)O[C@@H]1CC[C@@]2(C)[C@H](CC[C@@H]3[C@@H]2CC[C@]2(C)[C@@H]([C@H](C)CCC(=O)O)CC[C@@H]32)C1 .
Out: N

Where these numbers come from: ChEMBL document CHEMBL4346740
